- Tested on: biotinyl-Val-oxazolone
- assayText: self-aminoacylation, catalytic enhancement (BVO) (fold over background); higher = more active; k-Seq, kA / k0A0; sequences stand for … in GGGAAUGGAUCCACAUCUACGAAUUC…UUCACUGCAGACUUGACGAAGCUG
Variants at the floor of the assay were thinned out.
self-aminoacylation for assorted sequences
// no unit string in output, number only

> print(dat)
                            monomersequence     propertymeasured  valueobserved
1  CUUCACCUAGUUCAUCGGGUG [Fam2.2 aminoacylation ribozyme variant]  self-aminoacylation           2.27

Need self-aminoacylation of AUUCACCUAGGUCAUCGCCUG [Fam2.2 aminoacylation ribozyme variant] , thanks.
2.44

Could you tell me which self-aminoacylation is on file for CUACUUCAUAAAAUCGGUCUG [Fam1A.1 aminoacylation ribozyme variant] ?
0.641

Fill blank: measured self-aminoacylation of the sequence CUACUUCGAACAACCGGUCUG [Fam1A.1 aminoacylation ribozyme variant] is ____.
1.21

---

- System: biotinyl-Trp-oxazolone
- assayText: self-aminoacylation, catalytic enhancement (BWO) (fold over background); higher = more active; k-Seq, kA / k0A0; sequences stand for … in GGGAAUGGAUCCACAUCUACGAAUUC…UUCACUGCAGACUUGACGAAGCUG
This sample holds only a part of the variants without activity.
Binary classification by self-aminoacylation, with 3 as an inclusive lower bound for true; all other cases are false.

> print(dat)
                            monomersequence      targetortestsystem  label
1  CUUCACCAAGGUCAUCGGGUG [Fam2.2 aminoacylation ribozyme variant]  biotinyl-Trp-oxazolone   true
2  AUUACCCUGGUCAUCGAGAAA [Fam2.1 aminoacylation ribozyme variant]  biotinyl-Trp-oxazolone  false
3  AUUCACCUAGGUCAGCGGGCG [Fam2.2 aminoacylation ribozyme variant]  biotinyl-Trp-oxazolone   true
4  CUACUUUAGACAAUCGGUCUG [Fam1A.1 aminoacylation ribozyme variant]  biotinyl-Trp-oxazolone  false
5  AUUCAACUUGGUCAUCGGGUG [Fam2.2 aminoacylation ribozyme variant]  biotinyl-Trp-oxazolone   true

Assess whether reported self-aminoacylation for GUUCACCUAGGCCAUCGGGUG [Fam2.2 aminoacylation ribozyme variant] sits at 3 or higher.
true

Reported self-aminoacylation reaches at least 3 for GCGCACUUCAAGCAAUCGGUC [Fam1B.1 aminoacylation ribozyme variant] ?
true

Reported self-aminoacylation at or above 3? AUUCACCCAGGUCACCGGGUG [Fam2.2 aminoacylation ribozyme variant]
true

Hi team, for AUUACCCUGGUAAUCUAGUGA [Fam2.1 aminoacylation ribozyme variant] , is the recorded self-aminoacylation at or above 3?
true

Could you tell me if the measured self-aminoacylation of AAGUUUGGGAAUAGUCGCAAG [Fam3.1 aminoacylation ribozyme variant] reaches 3 or more?
false

Hello, I need to know if CUACUGCAACCAAUCGGUCUG [Fam1A.1 aminoacylation ribozyme variant] has measured self-aminoacylation not below 3. Thanks!
false

Confirm if self-aminoacylation reported for the sequence AUCACCCUGGUCCUCGAGUGA [Fam2.1 aminoacylation ribozyme variant] is 3 or above.
true

Assess whether reported self-aminoacylation for AUUACCCGGGGCAUCGAGUGA [Fam2.1 aminoacylation ribozyme variant] sits at 3 or higher.
true

Item AAGUUUGGUAAUAGUCGCAAC [Fam3.1 aminoacylation ribozyme variant] with self-aminoacylation of 3 or above?
false

# check: self-aminoacylation of AGUACCCUGGUGAUCGAGUGA [Fam2.1 aminoacylation ribozyme variant] is greater than or equal to 3
true

Evaluate CCACACUUCAAGCUAACGGUC [Fam1B.1 aminoacylation ribozyme variant] : self-aminoacylation at minimum 3?
false

Is it the case that AUUACCCAGGUCAUCGAGUGU [Fam2.1 aminoacylation ribozyme variant] has self-aminoacylation reaching or exceeding 3?
true

Can AUUACCCUGGCCAUCGAGUAA [Fam2.1 aminoacylation ribozyme variant] be said to have self-aminoacylation at or above 3?
false

Could you please find out whether CUACUUCACGCAAUCGGUCUG [Fam1A.1 aminoacylation ribozyme variant] has self-aminoacylation that meets 3 or exceeds it?
false

In plain terms: is recorded self-aminoacylation at least 3 for AAGUUUGCUAAUAGUCCGAAG [Fam3.1 aminoacylation ribozyme variant] ?
false

Can CUUACCCUGGACAUCGAGUGA [Fam2.1 aminoacylation ribozyme variant] be said to have self-aminoacylation at or above 3?
true

Would you say CUACUUAAUACAAUCGGUCUG [Fam1A.1 aminoacylation ribozyme variant] shows self-aminoacylation at minimum 3?
false

Is it the case that AAGCUUGCUAAAAGUCGCAAG [Fam3.1 aminoacylation ribozyme variant] has self-aminoacylation reaching or exceeding 3?
true

State whether the measured self-aminoacylation reaches 3, counting equality as reaching it, for AUUCAUCUAGGUCAUCGGAUG [Fam2.2 aminoacylation ribozyme variant]
false

API: above_or_equal(metric=self-aminoacylation, cutoff=3) for item CUACGUCACACAAUCGGUCUG [Fam1A.1 aminoacylation ribozyme variant]
false

Record AUUCACCUAGGUCAUCGGUUA [Fam2.2 aminoacylation ribozyme variant] ; criterion: self-aminoacylation no lower than 3. Met?
false

---

- Tested on: biotinyl-Val-oxazolone
- assayText: self-aminoacylation, catalytic enhancement (BVO) (fold over background); higher = more active; k-Seq, kA / k0A0; sequences stand for … in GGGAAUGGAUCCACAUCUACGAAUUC…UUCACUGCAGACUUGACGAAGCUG
This sample holds only a part of the variants without activity.
propertyMeasured: self-aminoacylation
// print number alone

Recorded results for 4 sequences are shown here.
> print(dat)
                            monomersequence     propertymeasured  valueobserved
1  AUUCACCUAUGUCAUGGGGUG [Fam2.2 aminoacylation ribozyme variant]  self-aminoacylation           2.07
2  CUCCUUAAAACAAUCGGUCUG [Fam1A.1 aminoacylation ribozyme variant]  self-aminoacylation          0.862
3  UUUCACCUACGUCAUCGGGUG [Fam2.2 aminoacylation ribozyme variant]  self-aminoacylation            3.3
4  CCACACUUCAGGCAAUCGCUC [Fam1B.1 aminoacylation ribozyme variant]  self-aminoacylation           2.04

// moving on: another record for self-aminoacylation
What reported self-aminoacylation corresponds to AAGGUUGCUAAUAGUCUCAAG [Fam3.1 aminoacylation ribozyme variant] on biotinyl-Val-oxazolone?
0.996

---

- Test system: biotinyl-Val-oxazolone
- assayText: self-aminoacylation, catalytic enhancement (BVO) (fold over background); higher = more active; k-Seq, kA / k0A0; sequences stand for … in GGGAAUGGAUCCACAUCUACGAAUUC…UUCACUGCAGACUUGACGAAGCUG
This sample holds only a part of the variants without activity.
Mark 1 for reported self-aminoacylation of 2 or greater; mark -1 for anything smaller.

Is reported self-aminoacylation greater than or equal to 2 here: CUAGUUAAAACAAUCGGUCUG [Fam1A.1 aminoacylation ribozyme variant]
-1

Decide: self-aminoacylation of AGUACCCUCGUCAUCGAGUGA [Fam2.1 aminoacylation ribozyme variant] >= 2?
1

Reported self-aminoacylation reaches at least 2 for AAGUUAGCUAAUAGUCUCAAG [Fam3.1 aminoacylation ribozyme variant] ?
-1

Can AUUACCCUGGUUAUCGGGUGA [Fam2.1 aminoacylation ribozyme variant] be said to have self-aminoacylation at or above 2?
1

Please tell me: is the sequence CCACAGUUCACGCAAUCGGUC [Fam1B.1 aminoacylation ribozyme variant] at or over 2 in terms of self-aminoacylation?
-1

Answer whether self-aminoacylation of AUUAACCUGGACAUCGAGUGA [Fam2.1 aminoacylation ribozyme variant] is greater than or equal to 2.
1

Does the reported self-aminoacylation for ACUCACCUAGGUCAUGGGGUG [Fam2.2 aminoacylation ribozyme variant] fall at or above the 2 mark?
1

Item AUUCGCCUAGGUAAUCGGGUG [Fam2.2 aminoacylation ribozyme variant] with self-aminoacylation of 2 or above?
1

Given CCACACUUCAAGCAUUGGGUC [Fam1B.1 aminoacylation ribozyme variant] , state whether its self-aminoacylation is at least 2.
-1

Hi team, for AAUUUUGCUAAUAGUCGCAAU [Fam3.1 aminoacylation ribozyme variant] , is the recorded self-aminoacylation at or above 2?
1

Would you say CCACUUCAAACAAUCGGGCUG [Fam1A.1 aminoacylation ribozyme variant] shows self-aminoacylation at minimum 2?
1

Is self-aminoacylation at least 2? Consider AUUCACCUAGCUCAUCGGGUA [Fam2.2 aminoacylation ribozyme variant]
1

---

- System: biotinyl-Ile-oxazolone
- assayText: self-aminoacylation, catalytic enhancement (BIO) (fold over background); higher = more active; k-Seq, kA / k0A0; sequences stand for … in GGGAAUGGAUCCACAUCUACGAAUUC…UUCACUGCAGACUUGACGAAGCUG
This sample holds only a part of the variants without activity.
Overview of recorded self-aminoacylation for various sequences
Number only, please.

> print(dat)
                            monomersequence      targetortestsystem     propertymeasured  valueobserved
1  AUUACCCUGGUCAGCGCGUGA [Fam2.1 aminoacylation ribozyme variant]  biotinyl-Ile-oxazolone  self-aminoacylation           3.45
2  AUUCCCCUGGUAAUCGAGUGA [Fam2.1 aminoacylation ribozyme variant]  biotinyl-Ile-oxazolone  self-aminoacylation           3.09
3  AUCCACCUAGGUCAUCGGUUG [Fam2.2 aminoacylation ribozyme variant]  biotinyl-Ile-oxazolone  self-aminoacylation           1.31
4  CUACUUUAGACAAUCGGUCUG [Fam1A.1 aminoacylation ribozyme variant]  biotinyl-Ile-oxazolone  self-aminoacylation           0.77

Proceed to the following item.
Any idea what its self-aminoacylation is? The sequence is CAGUUUGCUAAUAAUCGCAAG [Fam3.1 aminoacylation ribozyme variant]
0.97
